I'd be grateful if you could share measured pIC50 for these entries.
- measured.on: KRasG12C (M1-K169, biotinylated on the N-terminus) (Homo sapiens (Human), UniProt P01116, G12C)
- test: Covalent competition assay: scintillation proximity assay (SPA) quantifying covalent modification of KRASG12C
- settings: competition with radiolabeled covalent probe (Compound B/Compound A), 2 hours incubation, 10 nM KRasG12C
One number for each entry, as −log10 of the molar value.

Give pIC50 for all compounds that follow.
1. C=CC(=O)N1CC2(CC(n3nc(N4CCN(CCOC)CC45CCC5)c(-c4c(Cl)c(Cl)cc5[nH]ncc45)c3C)C2)C1 (single isomer, unassigned) [Example 76a]
2. C=CC(=O)N1CC2(CC(n3nc(N4CCn5nccc5C4C)c(-c4c(Cl)c(C)cc5[nH]ncc45)c3C)C2)C1 (single isomer, unassigned) [Example 41b]
3. C=CC(=O)N1CC2(CC(n3nc(N4CC[C@@H](CN5CCC[C@H]5C(=O)N(C)C)CC4(C)C)c(-c4c(Cl)c(Cl)cc5[nH]ncc45)c3C)C2)C1 (single isomer, unassigned) [Example 313b]
4. C=CC(=O)N1CC2(CC(n3nc(N4CCC(CN5CCS(=O)(=O)CC5)CC4(C)C)c(-c4c(Cl)c(Cl)cc5[nH]ncc45)c3C)C2)C1 (single isomer, unassigned) [Example 236a]

// result
1. 6.45
2. 6.83
3. 8.22
4. 6.77
